# target_or_system: D1 dopamine receptor (Macaca fascicularis, UniProt Q5I6B7)
# Sequence (Q5I6B7 whole entry): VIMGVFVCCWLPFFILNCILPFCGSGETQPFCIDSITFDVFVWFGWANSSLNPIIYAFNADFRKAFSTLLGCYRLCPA
measured_metric: pKi
# log scale: pKi equals minus log10 of the concentration in mol/L

Consider the compound shown here: Oc1cc2c(cc1O)C1c3ccccc3CNC1CC2 (stereo unspecified) [Dihydrexidine, DHX] What is its recorded pKi?
7.69

Entry source: BindingDB's records for doi:10.1111/j.1527-3458.2004.tb00024.x
